# Tested on: HCT-15 colon
# TEST: NCI tumour cell line growth inhibition, 48 h
ASSAY_READOUT: TGI

Would you please look over these solved cases?
1) Nc1nccc(NCC2(CO)CC(CCc3ccccc3)C2)n1 (centres undefined); 36.1 µM
2) CC(=O)O[C@H]([C@H](OC(C)=O)[C@H](C)OC(C)=O)[C@@H](/C=C/[C@H]1CC=CC(=O)O1)OC(C)=O; > 100 µM
3) O/N=C1/C(=C/c2ccc(OCc3ccccc3)cc2)CCCC1C(NO)c1ccc(OCc2ccccc2)cc1 (centres undefined); > 100 µM
4) COC(=O)c1sc(=S)sc1SCc1cccc(CSc2sc(=S)sc2C(=O)OC)c1; > 100 µM
5) COc1cc(/C=C/C(=O)c2nc3cc(F)ccc3nc2C)cc(OC)c1OC; > 100 µM
6) Cc1ccc(-c2nc([P+](c3ccccc3)(c3ccccc3)c3ccccc3)c(N3CCOCC3)o2)cc1; 12.1 µM
7) Cc1ccccc1NC(=O)C1C(=O)N(c2ccccc2C)C(=O)/C1=N\NC(N)=O (centres undefined); > 100 µM
8) COc1ccc(C(C)Nc2cc(OC)c(OC)c(OC)c2)cc1 (centres undefined); > 100 µM

Turning to the following compound.
Prompt: Query: TGI; subject: N#CC1=C(S)N(C2OC(CO)C(O)C(O)C2O)C(c2ccccc2)=CC1c1ccco1 (centres undefined)
Response: > 100 µM

###

# Tested on: UO-31 renal
# TEST: NCI tumour cell line growth inhibition, 48 h; in the data active = GI50 below about 0.43 µM; inactive = the rest
Answer with one of the outcomes active, inactive

As a guide, the following entries are already answered.
1. CC(=O)O[C@H]1C[C@@H]2[C@@]3(C)CC[C@H]4C[C@@]4(C)[C@@H]3CC[C@@]2(C)C2=CCC3=C(COC3=O)[C@]21C; inactive
2. COc1ccccc1CNCCCN1C(=O)c2ccc3c4c(ccc(c24)C1=O)C(=O)N(CCCNCc1ccccc1OC)C3=O; active
3. CCCCCCCCCCCCOC1C(C(COC2OC(C(O)CO)C3OC(C)(C)OC23)OC(=O)Nc2ccccc2)OC2OC(C)(C)OC21 (centres undefined); inactive

Prompt: So what was the verdict on "Nc1cc(C(F)(F)F)c(-c2nc(N3CCOCC3)nc(N3CCOCC3)n2)cn1" in this test?
Response: active

###

# Tested on: UO-31 renal
# TEST: NCI tumour cell line growth inhibition, 48 h
Please go through the items and note down their TGI.

Would you please look over these solved cases?
1) COc1ccc(-n2c(=O)c3ccccc3n(Cc3ccc(C(=O)NO)cc3)c2=O)cc1; 21.5 µM
2) CN1S(=O)(=O)N(C)P12(N=P(CP(=NP13(N(C)S(=O)(=O)N1C)N(C)S(=O)(=O)N3C)(c1ccccc1)c1ccccc1)(c1ccccc1)c1ccccc1)N(C)S(=O)(=O)N2C; > 100 µM
3) CC(C)(C)C1CCC(O)(c2ccccc2)CC1 (centres undefined); > 100 µM
4) Oc1c(Br)cc(Cl)cc1C(c1cc(Cl)cc(Br)c1O)C(Cl)(Cl)Cl; 9.61 µM
5) O=C1NC(=O)N(S(=O)(=O)c2cc(C(=O)Nc3ccc(Cl)cc3)c(Cl)cc2S)S(=O)(=O)N1; 46.5 µM
6) S=c1[nH]nc(Cn2c3ccc(Br)cc3c3nc4ccccc4nc32)o1; 40.8 µM
7) CCN(CC)c1ccc(Cl)c2c1C(O)(C(C)C)C2(C)C (centres undefined); 32 µM
8) COc1cc2c(cc1C)NC(=O)/C2=C\c1ccc(Oc2ccccc2)cc1; 30.9 µM

# input for lookup
Prompt: Using the record for "CCN(C(=O)N[C@@H](CC(C)C)C(=O)NCC(=O)OC)c1ccccc1" , report its TGI.
Response: > 100 µM
